Assay: Inhibitory activity against Streptococcus pneumoniae Beta-ketoacyl-ACP synthase III (FabH) (initiator of the fatty acid synthesis)
Rule for this label: 1 means IC50 is less than 0.06 µM; 0 means IC50 is at least 0.06 µM.

O=C(CCCCCn1c(C(=O)O)cc2cc(OCc3c(Cl)cccc3Cl)ccc21)NS(=O)(=O)c1ccccc1    1
O=C(O)CCCCCCn1c(C(=O)O)cc2cc(OCc3c(Cl)cccc3Cl)ccc21    0
O=C(O)CCCn1c(C(=O)O)cc2cc(OCc3c(Cl)cccc3Cl)ccc21    0
O=C(O)CCCCCn1c(C(=O)O)cc2cc(OCc3c(Cl)cccc3Cl)ccc21    0

Alright, here's another compound for you.
Prompt: Answer whether the compound O=C(O)Cn1c(C(=O)O)cc2cc(OCc3c(Cl)cccc3Cl)ccc21 has IC50 strictly less than 0.06 µM
Response: 0
